Origin of values: patent US9278962B2

tested on: rabbit skeletal myofibrils (approximately 90% fast fibers); experiment: Activation of fast skeletal myofibrils (PUMA coupled-enzyme ATPase assay, AC1.4); assay type: biochemical; settings: Table 5; concentration at which the compound increased enzymatic activity by 40%; calcium at pCa25
measured-quantity: Mean AC1.4

1. Cc1nc(NCC2(c3ncccc3F)CCC2)sc1-c1ccccc1 ... A (A=<1 uM)
2. N#Cc1ccc(F)c(-c2nnc(NC3(c4ncccc4F)CCC3)[nH]2)c1 ... D (D=>20 uM)
3. Fc1cccnc1C1(CNc2ncc(-c3ccccc3)s2)CCC1 ... A (A=<1 uM)
4. NC(=O)c1ccc(F)c(-c2nnc(NC3(c4ncccc4F)CCC3)[nH]2)c1 ... D (D=>20 uM)
5. CC(C)(Nc1nnc(-c2cc(C(N)=O)ccc2F)o1)c1ccc(F)cc1 ... C (C=10-20 uM)
6. CC(C)(CNc1nc(-c2cccnc2)no1)c1ccc(F)cc1 ... C (C=10-20 uM)
7. Cn1c(NC(C)(C)c2ccc(F)cc2)nnc1-c1cc(C(N)=O)ccc1F ... D (D=>20 uM)
8. Fc1cccnc1C1(CNc2nc(-c3ccccc3)co2)CCC1 ... D (D=>20 uM)
9. CC(C)(Nc1nnc(-c2cc(C#N)ccc2F)o1)c1ccc(F)cc1 ... D (D=>20 uM)
10. Fc1cccnc1C1(CNc2noc(-c3ccccc3)n2)CCC1 ... D (D=>20 uM)

----------
system: rabbit skeletal myofibrils (approximately 90% fast fibers); assay: Activation of fast skeletal myofibrils (PUMA coupled-enzyme ATPase assay, AC1.4); assay type: biochemical; conditions: Table 5; concentration at which the compound increased enzymatic activity by 40%; calcium at pCa25
measured-quantity: Mean AC1.4

1) Cn1nc(-c2cc(Br)ccc2F)nc1NC1(c2ncccc2F)CCC1 ... D (D=>20 uM)
2) Cn1nc(NC2(c3ncccc3F)CCC2)nc1-c1cc(C#N)ccc1F ... D (D=>20 uM)
3) O=C(Nc1ccn(-c2ccccc2)n1)C1(c2ncccc2F)CCC1 ... D (D=>20 uM)
4) Cn1nc(NC2(c3ncccc3F)CCC2)nc1-c1cc(Br)ccc1F ... D (D=>20 uM)
5) Fc1ccc(Br)cc1-c1nnc(NC2(c3ncccc3F)CCC2)[nH]1 ... D (D=>20 uM)
6) Fc1cccnc1C1(CNc2cnc(-c3ccccc3)s2)CCC1 ... D (D=>20 uM)

----------
test system: rabbit skeletal myofibrils (approximately 90% fast fibers); experiment: Activation of fast skeletal myofibrils (PUMA coupled-enzyme ATPase assay, AC1.4); format: biochemical; conditions: Table 3; concentration at which the compound increased enzymatic activity by 40%; calcium at pCa25
measured-quantity: Mean AC1.4

1) N#Cc1ccc(Cl)c(-c2nnc(NC[C@]3(c4ncccc4F)C[C@@H](F)C3)s2)c1 ... B (B=1-10 uM)
2) NC(=O)c1ccc(F)c(-c2nnc(NCC3(c4ncccc4F)CCC3)s2)c1 ... A (A=<1 uM)
3) NC(=O)c1ccc(F)c(-c2nnc(NC[C@]3(c4ncccc4F)C[C@H](F)C3)s2)c1 ... A (A=<1 uM)
4) Cc1ccc(-c2nnc(NC[C@]3(c4ncccc4F)C[C@H](F)C3)s2)s1 ... B (B=1-10 uM)
5) N#Cc1ccc(C#N)c(-c2nnc(NC[C@]3(c4ncccc4F)C[C@H](F)C3)s2)c1 ... B (B=1-10 uM)
6) Fc1ccccc1-c1nnc(NC[C@]2(c3ncccc3F)C[C@H](F)C2)s1 ... A (A=<1 uM)
7) NC(=O)c1cccc(-c2nnc(NC[C@]3(c4ncccc4F)C[C@@H](F)C3)s2)c1 ... B (B=1-10 uM)
8) NC(=O)c1cccc(-c2nnc(NC[C@]3(c4ncccc4F)C[C@H](F)C3)s2)c1 ... B (B=1-10 uM)
9) CCc1ccc(F)c(-c2nnc(NC[C@]3(c4ncccc4F)C[C@H](F)C3)s2)c1 ... A (A=<1 uM)
10) Cc1ccc(F)c(-c2nnc(NC[C@]3(c4ncccc4F)C[C@H](F)C3)s2)c1 ... A (A=<1 uM)
11) N#Cc1cccc(-c2nnc(NC[C@]3(c4ncccc4F)C[C@@H](F)C3)s2)c1 ... B (B=1-10 uM)
12) NC(=O)c1ccc(Cl)c(-c2nnc(NC[C@]3(c4ncccc4F)C[C@H](F)C3)s2)c1 ... A (A=<1 uM)
13) Fc1cccnc1C1(CNc2nnc(-c3ccccc3)s2)CCC1 ... A (A=<1 uM)
14) Cc1cc(C#N)sc1-c1nnc(NC[C@]2(c3ncccc3F)C[C@H](F)C2)s1 ... B (B=1-10 uM)
15) Fc1cccnc1C1(CNc2nnc(-c3cccs3)s2)CCC1 ... B (B=1-10 uM)
16) Fc1ccc(Br)cc1-c1nnc(NC[C@]2(c3ncccc3F)C[C@@H](F)C2)s1 ... A (A=<1 uM)
17) Fc1cccnc1C1(CNc2nnc(-c3ccc(Br)cc3)s2)CCC1 ... B (B=1-10 uM)
18) Cc1ccsc1-c1nnc(NC[C@]2(c3ncccc3F)C[C@@H](F)C2)s1 ... B (B=1-10 uM)
19) Fc1cccnc1C1(CNc2nnc(C3CCCC3)s2)CCC1 ... B (B=1-10 uM)
20) COC(=O)c1ccc(F)c(-c2nnc(NC[C@]3(c4ncccc4F)C[C@H](F)C3)s2)c1 ... B (B=1-10 uM)

----------
System: rabbit skeletal myofibrils (approximately 90% fast fibers)
Test: Activation of fast skeletal myofibrils (PUMA coupled-enzyme ATPase assay, AC1.4)
Format: biochemical
Settings: Table 2; concentration at which the compound increased enzymatic activity by 40%; calcium at pCa25
Excerpt: […] Fast fiber activators were identified by measuring the enzymatic activity of muscle myofibril preparations using the proprietary PUMA™ (see, e.g., U.S. Pat. Nos. 6,410,254, 6,743,599, 7,202,051, and 7,378,254) assay system. […] This assay regenerates myosin-produced ADP into ATP by oxidizing NADH, producing an absorbance change at 340 nm. […]
measured-quantity: Mean AC1.4

1. CC(C)(C(=O)Nc1nc(-c2ccccc2)ns1)c1ccc(F)cc1 ... D (D=>20 uM)
2. COc1cccc(Cc2nsc(NC[C@@H](C)c3ccc(F)cc3)n2)c1 ... A (A=<1 uM)
3. CC(CNc1nc(Cc2ccc(F)cc2)ns1)c1ccc(Cl)cc1 (centres unmarked) ... B (B=1-10 uM)
4. NC(=O)c1cccc(-c2nc(NCCc3ccccc3)ns2)c1 ... D (D=>20 uM)
5. CC(C)(CNc1nc(CN2CCCC2)ns1)c1ccc(F)cc1 ... D (D=>20 uM)
6. CC(C)(CNc1nc(C(N)=O)ns1)c1ccc(F)cc1 ... C (C=10-20 uM)
7. COc1cccc(Cc2nsc(NCC(C)(C)c3ccc(F)cc3)n2)c1 ... A (A=<1 uM)
8. CN(C)CCNc1nsc(NCC(C)(C)c2ccc(F)cc2)n1 ... D (D=>20 uM)
9. CN(CC(C)(C)c1ccc(F)cc1)c1nc(Cc2cccc(O)c2)ns1 ... D (D=>20 uM)
10. C[C@H](CNc1nc(-c2ccc(C(N)=O)cc2)ns1)c1ccc(F)cc1 ... A (A=<1 uM)
11. CC(C)(CNc1nc(-c2cccc(CO)c2)ns1)c1ccc(F)cc1 ... B (B=1-10 uM)
12. COc1cccc(Cc2nsc(NCCc3ccc(Cl)cc3)n2)c1 ... B (B=1-10 uM)
13. CC(C)(CNc1nc(-c2cncc(C#N)c2)ns1)c1ccc(F)cc1 ... B (B=1-10 uM)
14. Clc1ccc(Cc2nsc(NCCc3ccc(Cl)c(Cl)c3)n2)cc1 ... C (C=10-20 uM)
15. CC(C)(CNc1nc(CN2CCCCC2)ns1)c1ccc(F)cc1 ... D (D=>20 uM)
16. CC(C)(CNc1nc(-c2ccc3[nH]nc(N)c3c2)ns1)c1ccc(F)cc1 ... A (A=<1 uM)
17. CC(C)(O)/C=C/c1nsc(NCC(C)(C)c2ccc(F)cc2)n1 ... B (B=1-10 uM)

----------
test system: rabbit skeletal myofibrils (approximately 90% fast fibers); experiment: Activation of fast skeletal myofibrils (PUMA coupled-enzyme ATPase assay, AC1.4); type: biochemical; details: Table 2; concentration at which the compound increased enzymatic activity by 40%; calcium at pCa25
measured-quantity: Mean AC1.4

1. CNCc1nsc(NCC(C)(C)c2ccc(F)cc2)n1 ... D (D=>20 uM)
2. CC(C)Cc1nsc(NCC(C)(C)c2ccc(Cl)cc2)n1 ... B (B=1-10 uM)
3. CC(C)(CNc1nc(-c2ccccc2)ns1)c1ccc(F)cc1 ... B (B=1-10 uM)
4. Fc1ccc(Cc2nsc(NCCc3ccccc3)n2)cc1 ... D (D=>20 uM)
5. COc1cccc(Cc2nsc(NCCc3nc(C)cs3)n2)c1 ... D (D=>20 uM)
6. NC(=O)c1cccc(-c2nc(NCCCc3ccccc3)ns2)c1 ... D (D=>20 uM)
7. CN1CCC(CNc2nc(-c3cccc(C(N)=O)c3)ns2)(c2ccc(F)cc2)CC1 ... D (D=>20 uM)
8. CN(C)CCc1nsc(NCC(C)(C)c2ccc(F)cc2)n1 ... D (D=>20 uM)
9. CC(C)(CNc1nc(-c2ccc(O)nc2)ns1)c1ccc(F)cc1 ... B (B=1-10 uM)
10. Oc1cccc(Cc2nsc(NCc3ccc(Cl)cc3)n2)c1 ... D (D=>20 uM)
11. Fc1cccnc1C1(CNc2nsc(-c3ccccc3)n2)CCC1 ... D (D=>20 uM)
12. CC(C)(CNc1nc(C(O)CO)ns1)c1ccc(F)cc1 (stereo not drawn) ... B (B=1-10 uM)
13. CC(C)(CNc1nc(CCC(=O)N2CCCC(O)C2)ns1)c1ccc(F)cc1 (stereo not drawn) ... D (D=>20 uM)
14. CC(C)(CNc1nc(-c2ccccc2CO)ns1)c1ccc(F)cc1 ... B (B=1-10 uM)
15. CN(C)c1nc(-c2cccc(C(N)=O)c2)ns1 ... D (D=>20 uM)
16. Fc1ccc(Cc2nsc(NCCc3ccccc3Cl)n2)cc1 ... D (D=>20 uM)
17. COC(=O)N1CCN(Cc2nsc(NCC(C)(C)c3ccc(F)cc3)n2)CC1 ... C (C=10-20 uM)
18. CC(C)(CNc1nc(CCC(=O)N2CCCC2)ns1)c1ccc(F)cc1 ... C (C=10-20 uM)
19. Oc1ccc(CCNc2nc(Cc3cccc(O)c3)ns2)cc1 ... D (D=>20 uM)
20. NC(=O)c1cccc(-c2nsc(NCCCc3ccccc3)n2)c1 ... D (D=>20 uM)
21. CN1CCN(C(=O)CNc2nc(-c3cccc(C(N)=O)c3)ns2)CC1 ... D (D=>20 uM)
22. CC(C)(CNc1nc(CNC(=O)CO)ns1)c1ccc(F)cc1 ... B (B=1-10 uM)
23. COc1cccc(Cc2nsc(Nc3ccc(Cl)cc3)n2)c1 ... D (D=>20 uM)
